target: ACAT (Acyl CoA-Cholesterol Acyltransferase); construct: other: 10^−4 M; rat hepatic microsomes; other: 3 × 10^−5 M; other: 10^−5 M; ot; experiment: In-vitro determination of inhibition of ACAT in hepatic microsomes, [14C]-Palmitoyl CoA substrate; type: biochemical, Wistar rats; details: rat hepatic microsomes; first table
compounds and their reported IC50
Numeric only. Scale: µM

{"COMPOUND": "CC1(c2ccc(Cl)cc2)CC(C(=O)NN2CCCCC2)=NN1c1ccc(Cl)cc1Cl.Cl (stereo not shown) [Example 3, hydrochloride]", "VALUE_REPORTED": 7.63}
{"COMPOUND": "CC[C@H](C)C(=O)O[C@H]1C[C@@H](C)C=C2C=C[C@H](C)[C@H](CC[C@@H]3C[C@@H](O)CC(=O)O3)[C@H]21 [Lovastatin, reference compound]", "VALUE_REPORTED": 22.7}
{"COMPOUND": "CC1(c2ccc(Cl)cc2)CC(C(=O)NC2CCCCCC2)=NN1c1ccc(Cl)cc1Cl (stereo not shown) [Example 1]", "VALUE_REPORTED": 27.5}

From here, focus on the item given below.
Exercise: Quick one: IC50 for CC1(c2ccc(Cl)cc2)CC(C(=O)NN2CCCCCC2)=NN1c1ccc(Cl)cc1Cl.Cl (stereo not shown) [Example 2, hydrochloride] ?
Key: 4.93
